For each of the compounds below, state its normalized growth.
- MEASUREMENT PROTOCOL: chemical genetic growth profiling, strain panel (AID 1159580);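 further: tested at 20 µM; growth read once vehicle control cultures reached saturation at 30 °C; 1 = growth at the plate median or of vehicle wells; lower values mean less growth of the strain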
- TEST CONTEXT: S. cerevisiae deletion strains, growth OD, locus YEL061C, strain CIN8, active compounds read low
The whole screen tested about 5,500 compounds, of which about 2,000 (36%) were called active. Inconclusive results (about 18%) are left out. The list shows a part of the results. Where a SMILES comes first, the peptide text is derived from it.

[Q] Any idea what its normalized growth is? The compound is NCCCCC(N)C(=O)NC(Cc1ccc(O)cc1)C(=O)NC(CCCCN)C(=O)O (stereo not drawn) (H-Lys-Tyr-Lys-OH; configuration not given here)
[A] 0.996 (inactive)

[Q] What do you get for `Clc1ccc(OCCOc2ccc(Cl)cc2)cc1` ?
[A] 0.99 (inactive)

[Q] Here is the next compound: `CCC(=O)c1c(C)c(C)c(C)c(C)c1C`
[A] 0.975 (inactive)

[Q] Can you check C[C@@H]1CC2C3C[C@H](F)C4=CC(=O)C=C[C@]4(C)[C@@]3(F)[C@@H](O)C[C@]2(C)[C@@]1(O)C(=O)COC(=O)C(C)(C)C (some centres not stated) next?
[A] 1 (inactive)

[Q] What about this compound? COC(=O)CCC(C)[C@H]1CCC2C3C(C[C@H](O)[C@@]21C)[C@@]1(C)CC[C@@H](O)C[C@H]1C[C@H]3O (some centres not stated)
[A] 1 (inactive)

[Q] Please do the same for CC(=O)OCC(=O)[C@@]1(O)[C@H](OC(C)=O)CC2C3CCC4=CC(=O)C=C[C@]4(C)[C@@]3(F)[C@@H](O)C[C@@]21C (some centres not stated) as well.
[A] 0.991 (inactive)

[Q] # iterate: `N#Cc1cccc(Cn2c(=O)oc3ccccc32)c1`
[A] 0.989 (inactive)

[Q] // next record `O=C(O)CCCOc1ccc(Cl)cc1Cl`
[A] 0.998 (inactive)

[Q] Same question, C[C@H](CCC(=O)O)[C@H]1CCC2C3C(CC[C@@]21C)[C@@]1(C)CC[C@@H](O)C[C@H]1C[C@@H]3O (some centres not stated) this time
[A] 0.99 (inactive)

[Q] COc1c2ccoc2nc2c(OC)c(OCC(O)C(C)(C)O)ccc12 (configuration not stated) ?
[A] 1 (inactive)

[Q] Field entry: `CN(C)N=Nc1nc[nH]c1C(N)=O`
[A] 1.01 (inactive)

[Q] Entry `C[C@H](N)[C@H](O)c1cccc(O)c1` please
[A] 0.988 (inactive)

[Q] What do you have for `O=c1cc(-c2ccccc2)oc2cc(O)c(O)c(O)c12` ?
[A] 0.496 (active)

[Q] Here is the next compound: `C=C[C@H]1CN2CC[C@H]1C[C@@H]2[C@H](O)c1ccnc2ccccc12`
[A] 0.998 (inactive)

[Q] Consider next the compound `COc1cc([C@H]2Oc3cc([C@H]4Oc5cc(O)cc(O)c5C(=O)[C@@H]4O)ccc3O[C@@H]2CO)ccc1O` in the same way.
[A] 1 (inactive)

[Q] And the next one, CN(C)CCOC(=O)C(c1ccccc1)C1(O)CCCC1 (configuration not stated) ?
[A] 1 (inactive)

[Q] # repeat for NC(N)=NCCCC(NC(=O)C(N)Cc1ccc(O)cc1)C(=O)O (configuration not stated)
[A] 0.988 (inactive)

[Q] Now try `N#Cc1csc([N+](=O)[O-])c1` .
[A] 0.797 (active)

[Q] Could you do the same for `Cc1ccc2cc(NC(=O)c3ccco3)ccc2n1` , please?
[A] 0.895 (active)

[Q] Same question for `N[C@@H]1[C@@H](O)[C@H](O)[C@@H](CO)O[C@H]1O` please.
[A] 1.02 (inactive)

[Q] Lookup `COc1c2ccccc2nc2occc12`
[A] 0.993 (inactive)

[Q] C[C@@H]1O[C@@H](O[C@H]2C[C@@H](O)[C@]3(CO)C4C(CC[C@]3(O)C2)[C@@]2(O)CC[C@H](C3=CC(=O)OC3)[C@@]2(C)C[C@H]4O)[C@H](O)[C@H](O)[C@H]1O (some centres not stated) ?
[A] 1.02 (inactive)

[Q] Same lookup for COc1cc(S(C)=O)ccc1-c1nc2ncccc2[nH]1 (configuration not stated) , please.
[A] 1 (inactive)

[Q] // same read-out, input: CC(CCC(=O)O)[C@H]1CCC2C3CC[C@@H]4CCCC[C@]4(C)C3CC[C@@]21C (some centres not stated)
[A] 0.995 (inactive)

[Q] Likewise for CC1CC2C3CC(F)C4=CC(=O)C=CC4(C)C3(F)C(O)CC2(C)C1C(=O)COC(=O)C(C)(C)C (configuration not stated) ?
[A] 0.973 (inactive)

[Q] What would you report for `COc1cc2c(cc1/C=C/C(=O)c1cc(OC)c(OC)cc1OC)OCO2` ?
[A] 1 (inactive)

[Q] Follow-up entry: CC1CCC2(OC1)OC1CC3C4CCC5C[C@@H](O)CCC5(C)C4=CCC3(C)C1[C@@H]2C (some centres not stated)
[A] 0.996 (inactive)

[Q] Same question for `S=P(N1CC1)(N1CC1)N1CC1` please.
[A] 1.01 (inactive)

[Q] Same question for Cc1ccc2c(c1)N(CCO)C(C)(C)CC2C (configuration not stated) please.
[A] 1.03 (inactive)

[Q] Now give it for `CCCCSP(=O)(SCCCC)SCCCC` too.
[A] 1.01 (inactive)

[Q] Also CC(CCC(=O)O)[C@H]1CCC2C3C[C@H](O)[C@@H]4C[C@H](O)CC[C@]4(C)C3CC[C@@]21C (some centres not stated) ?
[A] 1.02 (inactive)

[Q] What would you report for CCCCCC1C(=O)CCC1CC(=O)OC (configuration not stated) ?
[A] 0.991 (inactive)

[Q] How about `C[C@H](N)[C@H](O)c1ccccc1` ?
[A] 1 (inactive)

[Q] Same for Cc1cc(CN2CC(C)OC(C)C2)cc(C)c1O (configuration not stated)
[A] 0.997 (inactive)

[Q] `CCN(CC)CCOC(=O)C(c1ccccc1)c1ccccc1` ?
[A] 0.987 (inactive)

[Q] // same read-out, input: Nc1ccn(C2O[C@H](CO)[C@@H](O)[C@H]2O)c(=O)n1 (some centres not stated)
[A] 1.01 (inactive)

[Q] What do you get for `COc1cc(CC/C(C)=N/O)ccc1OCc1ccc(Cl)cc1Cl` ?
[A] 0.929 (inactive)

[Q] Record: COC(=O)CCC(C)C1CCC2C3CC[C@@H]4C[C@H](O)CC[C@]4(C)C3C[C@H](O)[C@]12C (some centres not stated)
[A] 0.975 (inactive)

[Q] Now consider `COc1cc(OC)c2c3c1C(=O)c1c(OC)cc(C)c4c(OC)cc(c-3c14)C(C)(C)C2=O` and answer again.
[A] 1.01 (inactive)

[Q] Note, next up: CC(=O)O[C@H]1CC[C@]2(C)C3C(=O)[C@@H](OC(C)=O)[C@@]4(C)C(C[C@@H]5O[C@]6(CCC(C)CO6)[C@@H](C)[C@@H]54)C3CC[C@H]2C1 (some centres not stated)
[A] 0.999 (inactive)

[Q] // repeat for `C[C@@H](N)[C@@H](O)c1ccccc1` and report
[A] 0.987 (inactive)

[Q] Thanks! And `COC(=O)CCCOc1ccc(Cl)cc1Cl` ?
[A] 0.985 (inactive)
